For each record, write down the corresponding MIC, S. aureus 43300.
Test system: Methicillin-resistant Staphylococcus aureus (MRSA) 43300
reportedConditions: Methicillin-resistant 43300
Procedure: […] The bacteria were cultured overnight in the MHB medium and transferred to the new MHB the next day until the bacteria reached the exponential growth stage. […] Optical density was measured at an absorbance wavelength of 492 nm using a microplate reader (Tecan GENios F129004, Tecan, Austria). […]
Where no end group is shown, it is not given here.
One number for each entry, in µM.

// worked examples, MIC, S. aureus 43300 included
>>> df
                                  substance  numericreadout
0      ASVVKWLTKWVAKLLK-NH2 [TP(i+4) 1&2&7]               4
1  ASVVKWWWKWWWKLLK-NH2 [TP(i+4) 1&2&5&6&7]               4

Would you kindly look at the next entry?
-- ask Any idea what its MIC, S. aureus 43300 is? The substance is ASVVKWLWKWVWKLLK-NH2 [TP(i+4) 1&2&5&7]
-- reply 16

----------
Tested on: hRBCs (human red blood cells)
methodDescription: Hemolytic activity
reportedConditions: three independent assays, two in parallel
Where no end group is shown, it is not given here.
measuredParameter: MHC (concentration of peptide that causes hemolysis of 50% of human red blood cells) (µM)
Give bare numbers, in µM.

>>> print(df.to_string())
                                substance  numericreadout
0  ASVVKWLWKWVWKLLK-NH2 [TP(i+4) 1&2&5&7]           64.00

Record MHC (concentration of peptide that causes hemolysis of 50% of human red blood cells) per entry; entries follow.
1. ASVVKWLTKWVAKLLK-NH2 [TP(i+4) 1&2&7]
2. ASVVKWWTKWWAKLLK-NH2 [TP(i+4) 1&2&6&7]

-- reply
64.00
64.00

Record MHC (concentration of peptide that causes hemolysis of 50% of human red blood cells) per entry; entries follow.
1. ASVVKWWWKWWWKLLK-NH2 [TP(i+4) 1&2&5&6&7]
2. ASVVKKWWKGWWKLLK-NH2 [TP(i+4) 1&2&5&6]

-- reply
1: 8.00; 2: 64.00

----------
Tested on: Methicillin-resistant Staphylococcus aureus (MRSA) 43300
reportedConditions: Methicillin-resistant 43300
Where no end group is shown, it is not given here.
For each record, write down the corresponding MIC, S. aureus 43300.
Answers are plain numbers, in µM.

In [3]: df
Out[3]:
                                substance     measuredparameter  numericreadout
0    ASVVKKWTKGWAKLLK-NH2 [TP(i+4) 1&2&6]  MIC, S. aureus 43300              64
1  ASVVKWWTKWWAKLLK-NH2 [TP(i+4) 1&2&6&7]  MIC, S. aureus 43300               4

-- ask Any idea what its MIC, S. aureus 43300 is? The substance is ASVVKKLWKGVWKLLK-NH2 [TP(i+4) 1&2&5]
-- reply 2

----------
Test system: Gram-negative bacteria
methodDescription: Geometric mean of MIC and therapeutic index
Format: cell-based
reportedConditions: MHC/GM; 128 μm used when 50% hemolysis not observed at 128 μm
Where no end group is shown, it is not given here.
Mark Yes for reported Therapeutic index (TI), Gram-negative bacteria of 8 or greater; mark No for anything smaller.

>>> print(df.to_string())
                                substance  labelvalue
0    AKVVKKLTKGVAKLLK-NH2 [TP(i+4) 1&2&3]          No
1      AKVVNKLTKGVAKLLK-NH2 [TP(i+4) 2&3]          No
2    AKVVNKLTKKVAKLLK-NH2 [TP(i+4) 2&3&4]          No
3    ASVVKKLWKGVWKLLK-NH2 [TP(i+4) 1&2&5]         Yes
4  ASVVKKWWKGWWKLLK-NH2 [TP(i+4) 1&2&5&6]         Yes

Turning now to a further record.
-- ask Determine whether this substance has Therapeutic index (TI), Gram-negative bacteria no lower than 8: ASVVKKLTKKVAKLLK-NH2 [TP(i+4) 1&2&4]
-- reply Yes
